Parameter: inhibition at 10 µM. Scope: all listed entries.
- MEASUREMENT TARGET: Noradrenaline (NA) reuptake (Rattus norvegicus)
- Construct: synaptosomes are freshly isolated from areas of rat brain; from tissue; host or cells: rat hypothalamus synaptosomes (P2 fraction)
- Sequence (Q63380 1-617): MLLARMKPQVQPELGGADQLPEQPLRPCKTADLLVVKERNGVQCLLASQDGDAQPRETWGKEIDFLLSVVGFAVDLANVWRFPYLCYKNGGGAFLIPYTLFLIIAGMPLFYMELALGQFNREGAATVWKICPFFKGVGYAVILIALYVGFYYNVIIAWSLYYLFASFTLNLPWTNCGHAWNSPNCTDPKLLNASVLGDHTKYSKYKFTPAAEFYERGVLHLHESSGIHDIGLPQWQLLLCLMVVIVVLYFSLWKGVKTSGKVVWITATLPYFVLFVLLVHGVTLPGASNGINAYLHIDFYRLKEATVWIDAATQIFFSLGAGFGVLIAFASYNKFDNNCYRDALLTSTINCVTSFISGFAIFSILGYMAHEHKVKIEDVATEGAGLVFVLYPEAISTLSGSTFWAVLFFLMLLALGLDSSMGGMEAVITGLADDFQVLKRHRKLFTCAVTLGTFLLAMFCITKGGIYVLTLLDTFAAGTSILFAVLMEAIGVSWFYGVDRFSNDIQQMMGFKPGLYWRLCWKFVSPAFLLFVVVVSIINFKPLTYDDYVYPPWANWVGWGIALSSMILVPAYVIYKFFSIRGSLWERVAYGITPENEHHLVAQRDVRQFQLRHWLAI
- TEST PROTOCOL: Noradrenaline (NA) reuptake inhibition in rat brain synaptosomes (hypothalamus, P2 fraction)
- Type: biochemical
- ASSAY CONTEXT: read-out: NA reuptake, % inhibition [10 μM]
Structures can show the parent of a compound that is named as a salt.
Please give a number only; it is taken to be in %.

> print(dat)
                                   compound    recorded.endpoint  measured.number
1  CN(C)C(c1ccccc1)C1CCC(NCc2ccccc2)CC1 (stereo not drawn) [compound 86, hydrochloride]  inhibition at 10 µM               95
2  CN(C)C(CCc1ccccc1)C1CCC(N)CC1 (stereo not drawn)  inhibition at 10 µM               95
3  CN(C)C(c1cccs1)C1CCC(CCN)CC1 (stereo not drawn)  inhibition at 10 µM               98
4  CN(C)C(c1ccc(F)cc1)C1CCC(N)CC1 (stereo not drawn)  inhibition at 10 µM               93
5  CN(C)C(c1ccccc1)C1CCC(NC(=O)NCc2ccccc2)CC1 (stereo not drawn)  inhibition at 10 µM               96
6  CN(C)C(c1ccc(F)cc1)C1CCC(CO)CC1 (stereo not drawn)  inhibition at 10 µM               91
7  CN(C)C(CCc1ccccc1)C1CCC(CO)CC1 (stereo not drawn)  inhibition at 10 µM               97
8  CN(C)C(c1ccccc1)C1CCC(NC(=O)Nc2ccc(F)cc2F)CC1 (stereo not drawn) [compound 74, hydrochloride]  inhibition at 10 µM               93

Here's the next entry for you.
Consider the compound COc1ccc(OC)c(C2(O)CCC(C(c3ccccc3)N(C)C)CC2)c1 (stereo not drawn) [compound 149, hydrochloride] and give its measured inhibition at 10 µM.
75
